- target under test: Homeobox protein Hox-A13 (Mus musculus) (UniProt Q62424)
- Sequence (Q62424 whole entry, looked up): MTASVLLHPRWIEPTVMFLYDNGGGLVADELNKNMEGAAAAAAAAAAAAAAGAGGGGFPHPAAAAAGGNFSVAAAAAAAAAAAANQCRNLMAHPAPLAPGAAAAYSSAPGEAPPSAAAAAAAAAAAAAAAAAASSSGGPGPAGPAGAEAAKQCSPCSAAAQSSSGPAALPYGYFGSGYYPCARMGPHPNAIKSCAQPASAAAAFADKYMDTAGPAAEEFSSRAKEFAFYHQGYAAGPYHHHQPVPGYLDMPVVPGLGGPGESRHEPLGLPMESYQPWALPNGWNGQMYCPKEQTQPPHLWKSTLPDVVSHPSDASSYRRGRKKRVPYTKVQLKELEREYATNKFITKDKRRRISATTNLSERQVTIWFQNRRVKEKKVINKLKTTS
- test name: inhibitors of HoxA13-DNA binding, primary screen, biochemical, fluorescence polarization, labeled oligonucleotide (AID 1185)
- test settings: 15 min, higher = more signal, called active from +8 up or from −8 down
Overview of reported z-score across a group of compounds:
reported metric: z-score

# compound, measurement
measured = [
    ("COc1cc(NN2C(C(O)c3ccccc3)C=CC3C(=O)N(C)C(=O)C32)cc(OC)c1OC (configuration not stated)", -3.23),
    ("O=C1N(CCS(=O)(=O)c2ccccc2)Cc2ccccc2[C@@H]2OC(c3ccc(OCCCO)cc3)=N[C@]12CCS(=O)(=O)c1ccccc1", 0.71),
    ("COCC(=C=CC[C@@H](O)c1cccc(OCCO)c1)CCO", -1.85),
    ("O=C(CS)NCCCCCCNC(=O)[C@@H]1C[C@@H]2C(=O)NCC(=O)N2[C@@H]1c1ccc(O)cc1", -1.63),
    ("C=C[C@@H](C)[C@@H](OC(=O)Nc1ccc(SC)cc1)c1ccc(OCCO)cc1", -5.52),
    ("COc1ccc([Si](C)(C)[C@H]2[C@H](CCO)O[C@@]3(C(=O)N(Cc4ccccc4)c4ccc(N5CCOC5=O)cc43)[C@@H]2C)cc1", -3.27),
    ("C=C(COC)/C(=C/C[C@@H](OC(C)=O)c1ccc(CO)o1)c1cc(C(=O)OC)ccc1OC", -4.84),
    ("CC(C)C(=C=CC[C@@H](O)c1cccc(OCCO)c1)C[C@@H](O)COCc1ccccc1", -4.48),
    ("C=C(COC)C(=O)CC[C@H](OC(C)=O)c1ccc(OCCO)cc1", -4.76),
    ("CCCC=C(CCC)[C@@H](NS(=O)(=O)c1cccc2cccnc12)c1ccc(-c2ccccc2)cc1", -0.807),
    ("COCCOC(=O)N1C(=O)[C@@]2(c3cc(C#CCNC(N)=O)ccc31)[C@H](c1ccc(OCCO)cc1)N1[C@H](c3ccccc3)[C@H](c3ccccc3)OC(=O)[C@H]1[C@@H]2C(N)=O", -2.25),
    ("C=C(/C(=C/C[C@@H](OC(C)=O)c1ccc(OCCO)cc1)c1cc(C(=O)OC)ccc1OC)C(C)C", -4.3),
    ("CC(C)CCC[C@@H](C)[C@H]1CC[C@@]2(C)C3=C(CC[C@]12C)[C@@]1(C)CC[C@H](OC(=O)c2ccccc2)C(C)(C)C1CC3 (some centres not stated)", -1),
    ("C=CC1c2cc(O)c(OC)cc2CCN1Cc1ccc([N+](=O)[O-])o1 (configuration not stated)", -4.18),
    ("O=C1C2C=CC(C(O)C=Cc3ccc([N+](=O)[O-])cc3)N(Nc3ccccc3)C2C(=O)N1c1ccccc1 (configuration not stated)", -4.58),
    ("COCCOC(=O)N1C(=O)[C@@]2(c3cc(C#CC4(O)CCCCCC4)ccc31)[C@H](C(=O)N1CCN(c3ncccn3)CC1)[C@H]1C(=O)O[C@H](c3ccccc3)[C@H](c3ccccc3)N1[C@@H]2c1ccccc1OCCO", -0.77),
    ("CN(C)CCCCNC(=O)[C@H]1C[C@H]2C(=O)N[C@@H](CCCC[N+](C)(C)C)C(=O)N2[C@H]1c1ccc(O)cc1", -3.64),
    ("O=C1NC(=O)C2C1C=CC(C(O)c1ccccn1)N2Nc1ccc(Cl)cc1Cl (configuration not stated)", -4.45),
    ("C=C[C@@H](OC)[C@H](OC(=O)Nc1ccc(SC)cc1)c1ccc(OCCO)cc1", -5.58),
    ("C=CCC(OC(C)=O)[C@@H]1[C@@H](N(Cc2ccc(-c3ccccc3)cc2)C(=O)c2ccc(C)cc2)c2cc(OCCCO)ccc2N1C(=O)Cc1ccc2ccccc2c1 (some centres not stated)", -1.28),
    ("CC(C)OC(=O)CC(=O)CC(O)c1ccc([N+](=O)[O-])cc1 (configuration not stated)", -1.67),
    ("CN(C)CCCC[C@@H]1NC(=O)[C@@H]2C[C@H](C(=O)O)[C@H](c3cccc(OCCO)c3)N2C1=O", -3.07),
    ("C=C(C(=O)CC[C@H](OC(=O)c1ccccc1-c1ccccc1C(=O)O)c1ccccc1OCCO)C(C)C", -5.13),
    ("C#C[C@@H](CC)O[Si](C#CCCCC#N)(C(C)C)C(C)C", -1.27),
    ("O=C1OCCC/C=C\\[C@H]2OC34C=CCN(c5ccc6ccccc6c5)C(=O)[C@H]3N(CCCO)C(=O)[C@@H]4C12 (some centres not stated)", -5.72),
    ("CN1C(=O)[C@@]2(Cc3ccccc3)N=C(c3ccc(OCCCO)cc3)O[C@H]2c2ccccc21", -4.01),
    ("COc1cc2c(cc1O)C(c1ccc(CN3CCCC3)cc1)N(C)CC2 (configuration not stated)", -2.85),
    ("COCCOC(=O)N1C(=O)[C@@]2(c3cc(C#CC4(O)CCCCCC4)ccc31)[C@H](c1ccc(OCCO)cc1)N1[C@H](c3ccccc3)[C@H](c3ccccc3)OC(=O)[C@H]1[C@@H]2C(=O)Nc1nc2ccccc2s1", 1.07),
    ("C=C/C=C/[C@@H]1C(=C)CN([C@@H](Cc2ccccc2)C(=O)OC)[C@H]1[C@@H](O)Cc1ccccc1", -1.8),
    ("C=CCN1C(=O)[C@@]2(O[C@@H](CCO)[C@H]([Si](C)(C)c3ccc(OC)cc3)[C@H]2C)c2cc(N3CCOC3=O)ccc21", -5.97),
    ("COc1cc(C(O)C2C=CC3C(=O)N(Cc4ccccc4)C(=O)C3N2n2cnnc2)cc(OC)c1OC (configuration not stated)", -1.38),
    ("CS(=O)(=O)CCOC(=O)C1=CC(CCCO)=CC(C2CC2)N(Cc2cccc(OC(F)(F)F)c2)C=C1C(=O)OCCS(C)(=O)=O (configuration not stated)", -6.49),
]
